These measurements were taken from patent US7855292B2.

Target: CCK-1 receptor (Homo sapiens)
Construct: expressed in transfected cells; host or cells: CHO-K1
Assay: CCK1 binding assay ([125I]-BH-CCK-8S displacement, CHO-K1 membranes)
Settings: membranes of CHO-K1 cells stably transfected with the CCK-1 receptor; 20 pM [125I]-BH-CCK-8S; 0.3 μM PD-134,308 present; 60 min at 21±3° C.; read-out: CCK1 pKi (converted)
endpoint_name: Ki (nM)

[[record]]
molecule = "O=C(N[C@@H](Cc1ccc(Cl)c(I)c1)C(=O)O)c1ccc(I)cc1NS(=O)(=O)c1cccc2nsnc12 [Example 92]"
readout_units = "nM"
result_value = 63.1

[[record]]
molecule = "CC(CNC(=O)c1ccc(Cl)cc1NS(=O)(=O)c1c(F)cccc1F)c1ccc([N+](=O)[O-])cc1 (stereo not shown) [Example 44]"
readout_units = "nM"
result_value = 100


A = CC(Cc1ccc(Cl)cc1)NC(=O)c1ccc(Br)cc1NS(=O)(=O)c1cccc2nsnc12 (racemic) [Example 53]
B = CC(CNC(=O)c1ccc(Br)cc1NS(=O)(=O)c1cccc2nsnc12)c1ccc(Cl)c(Cl)c1 (stereo not shown) [Example 5]
# return whichever of A and B has the smaller Ki Select an item and report its label.
B

---

Target: CCK2 receptor (Homo sapiens, UniProt P32239)
Construct: analyzed for ZFP expression as well as CCK2R induction upon addition of doxycycline to the culture medium; endogenous in cells
Sequence (P32239 1-447): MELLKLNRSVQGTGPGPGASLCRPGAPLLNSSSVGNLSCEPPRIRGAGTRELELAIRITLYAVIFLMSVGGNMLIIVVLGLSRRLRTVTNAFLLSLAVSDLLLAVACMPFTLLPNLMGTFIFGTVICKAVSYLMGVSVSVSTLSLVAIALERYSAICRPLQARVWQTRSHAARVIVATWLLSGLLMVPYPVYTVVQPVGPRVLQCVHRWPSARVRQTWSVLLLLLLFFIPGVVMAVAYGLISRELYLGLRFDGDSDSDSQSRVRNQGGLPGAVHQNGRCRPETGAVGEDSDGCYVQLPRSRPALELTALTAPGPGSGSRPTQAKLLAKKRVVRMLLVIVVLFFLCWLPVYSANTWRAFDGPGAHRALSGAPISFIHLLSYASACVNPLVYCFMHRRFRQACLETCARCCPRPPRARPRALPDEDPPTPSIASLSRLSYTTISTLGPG
Assay: CCK2 binding assay ([125I]-BH-CCK-8S displacement, HEKZFP membranes)
Conditions: membranes of doxycycline-induced HEKZFP cells; 20 pM [125I]-BH-CCK-8S; 60 min at 21±3° C.; read-out: CCK2 pKi (converted)
endpoint_name: Ki (µM)

Below: 3 molecules and their reported Ki.
[[record]]
molecule = "CC(CNC(=O)c1ccc(I)cc1NS(=O)(=O)c1c(F)cccc1F)c1ccc(Cl)cc1Cl (stereo not shown)"
endpoint_name = "Ki"
result_value = 5.01

[[record]]
molecule = "O=C(N[C@H](Cc1ccc(Cl)c(Cl)c1)C(=O)O)c1ccc(Cl)cc1NS(=O)(=O)c1c(F)cccc1F"
endpoint_name = "Ki"
result_value = 1

[[record]]
molecule = "CC(CNC(=O)c1cc(Cl)ccc1NS(=O)(=O)c1cccc2nsnc12)c1ccc(Cl)c(Cl)c1 (racemic)"
endpoint_name = "Ki"
result_value = 0.631


P = CC(CNC(=O)c1ccc(Cl)cc1NS(=O)(=O)c1cccc2nsnc12)c1ccc(Cl)cc1 (racemic)
Q = CC(CNC(=O)c1ccc(Cl)cc1NS(=O)(=O)c1c(F)cccc1F)c1ccc(Cl)cc1Cl (stereo not shown)
Which value of Ki is numerically greater: that of P or that of Q ? Select an item and report its label.
P

1 = O=C(NC(C(=O)O)C(O)c1ccc(Cl)c(Cl)c1)c1ccc(Cl)cc1NS(=O)(=O)c1cccc2nsnc12 (mixture of isomers)
2 = O=C(N[C@@H](Cc1ccc2ccccc2c1)C(=O)O)c1ccc(Cl)cc1NS(=O)(=O)c1cccc2nccnc12
Which value of Ki is numerically greater: that of 1 or that of 2 ? Select an item and report its label.
2
(2: 0.398 µM, 1: 0.251 µM)

---

Molecular target: CCK-1 receptor (Homo sapiens)
Construct: expressed in transfected cells; host or cells: CHO-K1
Assay: CCK1 binding assay ([125I]-BH-CCK-8S displacement, CHO-K1 membranes)
Settings: membranes of CHO-K1 cells stably transfected with the CCK-1 receptor; 20 pM [125I]-BH-CCK-8S; 0.3 μM PD-134,308 present; 60 min at 21±3° C.; read-out: CCK1 pKi (converted)
endpoint_name: Ki (nM)

[[record]]
molecule = "COC(=O)[C@H](Cc1ccc(Cl)cc1)NC(=O)c1cc(Cl)c(Cl)cc1NS(=O)(=O)c1cccc2nsnc12"
result_value = 200

[[record]]
molecule = "CC(CNC(=O)c1ccc(Cl)cc1NS(=O)(=O)c1c(F)cccc1F)c1ccc(Cl)cc1Cl (stereo not shown)"
result_value = 126

[[record]]
molecule = "O=C(N[C@@H](Cc1ccc(Cl)c(Cl)c1)C(=O)O)c1cc(Cl)c(Cl)cc1NS(=O)(=O)c1cccc2nsnc12"
result_value = 100


A = CC(CNC(=O)c1ccc(Cl)cc1NS(=O)(=O)c1cccc2nsnc12)c1ccc(Cl)cc1 (racemic)
B = CC(CNC(=O)c1ccc(Cl)cc1NS(=O)(=O)c1c(F)cccc1F)c1ccc(C(F)(F)F)cc1 (stereo not shown)
C = COC(=O)[C@H](Cc1ccc(F)c(Br)c1)NC(=O)c1cc(Cl)c(Cl)cc1NS(=O)(=O)c1cccc2nsnc12
D = CC(C)(c1ccc(Cl)cc1)[C@H](NC(=O)c1ccc(I)cc1NS(=O)(=O)c1cccc2nsnc12)C(=O)O
Please rank these molecules by Ki in descending order. Returns: the labels listed in the requested order.
D, B, A, C

---

Target: CCK-1 receptor (Homo sapiens, UniProt P32238)
Construct: expressed in transfected cells; host or cells: CHO-K1
Sequence (P32238 1-428): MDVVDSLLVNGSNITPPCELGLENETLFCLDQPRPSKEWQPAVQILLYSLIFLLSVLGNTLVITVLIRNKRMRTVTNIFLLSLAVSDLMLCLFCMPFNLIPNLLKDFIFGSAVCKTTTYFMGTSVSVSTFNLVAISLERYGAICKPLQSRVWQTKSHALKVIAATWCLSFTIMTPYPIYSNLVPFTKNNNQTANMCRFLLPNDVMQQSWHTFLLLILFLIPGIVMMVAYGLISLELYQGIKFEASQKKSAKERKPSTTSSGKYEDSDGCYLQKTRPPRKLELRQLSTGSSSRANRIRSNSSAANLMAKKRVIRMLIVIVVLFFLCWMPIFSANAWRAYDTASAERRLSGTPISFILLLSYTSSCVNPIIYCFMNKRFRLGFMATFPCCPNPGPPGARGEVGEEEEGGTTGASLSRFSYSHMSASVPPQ
Test: CCK1 binding assay ([125I]-BH-CCK-8S displacement, CHO-K1 membranes)
Details: membranes of CHO-K1 cells stably transfected with the CCK-1 receptor; 20 pM [125I]-BH-CCK-8S; 0.3 μM PD-134,308 present; 60 min at 21±3° C.; read-out: CCK1 pKi (converted)
Method: 1. CCK1 Assay Development and Data Generation CHO-K1 cells that had undergone stable transfection with the CCK-1 receptor were grown in DMEM supplemented with L-glutamine (2 mM), penicillin (50 units/mL) and streptomycin (50 μg/mL). […] All assays were conducted in 96-well plates (GF/B millipore filter plates) using buffer A, with 0.3 μM PD-134,308, for the dilutions. […] Bound radioactivity was determined using a gamma counter (count time=1 min). […] The pKi values were determined using the equation of Y.-C. […]
endpoint_name: Ki (nM)

[[record]]
compound = "O=C(N[C@@H](Cc1ccc(Cl)c(Cl)c1)C(=O)Nc1ccccc1)c1ccc(Cl)cc1NS(=O)(=O)c1cccc2nsnc12"
endpoint_name = "Ki"
result_value = 79.4

[[record]]
compound = "CC(CNC(=O)c1ccc(I)cc1NS(=O)(=O)c1c(F)cccc1F)c1ccc(Cl)cc1Cl (stereo not shown)"
endpoint_name = "Ki"
result_value = 100


a = O=C(O)C[C@H](Cc1ccc(Cl)cc1)NC(=O)c1ccc(Cl)cc1NS(=O)(=O)c1cccc2nccnc12
b = O=C(N[C@@H](Cc1ccc(Cl)c(Cl)c1)C(=O)N1CCCCC1)c1ccc(Cl)cc1NS(=O)(=O)c1cccc2nsnc12
# return whichever of a and b has the smaller Ki Select an item and report its label.
b
(b: 126 nM, a: 7940 nM)

---

Target: CCK-1 receptor (Homo sapiens, UniProt P32238)
Construct: expressed in transfected cells; host or cells: CHO-K1
Sequence (P32238 1-428): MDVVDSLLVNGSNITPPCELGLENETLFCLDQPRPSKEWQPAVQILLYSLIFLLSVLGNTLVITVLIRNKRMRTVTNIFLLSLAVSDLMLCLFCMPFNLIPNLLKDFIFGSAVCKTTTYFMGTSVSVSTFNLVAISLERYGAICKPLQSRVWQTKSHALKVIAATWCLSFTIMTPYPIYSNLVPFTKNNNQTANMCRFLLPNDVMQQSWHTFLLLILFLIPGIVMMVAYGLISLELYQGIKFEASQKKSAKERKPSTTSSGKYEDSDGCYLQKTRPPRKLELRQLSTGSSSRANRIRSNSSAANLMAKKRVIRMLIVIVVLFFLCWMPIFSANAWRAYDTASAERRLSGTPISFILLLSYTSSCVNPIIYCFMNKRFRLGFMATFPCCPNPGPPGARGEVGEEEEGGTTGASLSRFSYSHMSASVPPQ
Experiment: CCK1 binding assay ([125I]-BH-CCK-8S displacement, CHO-K1 membranes)
Conditions: membranes of CHO-K1 cells stably transfected with the CCK-1 receptor; 20 pM [125I]-BH-CCK-8S; 0.3 μM PD-134,308 present; 60 min at 21±3° C.; read-out: CCK1 pKi (converted)
endpoint_name: Ki (µM)

Below: 3 molecules and their reported Ki.
[[record]]
molecule = "COC(=O)[C@H](Cc1ccc(Br)s1)NC(=O)c1ccc(Cl)cc1NS(=O)(=O)c1cccc2nccnc12"
result_value = 3.16

[[record]]
molecule = "CC(CNC(=O)c1cc(Cl)ccc1NS(=O)(=O)c1cccc2nsnc12)c1ccc(Cl)c(Cl)c1 (racemic)"
result_value = 0.0631

[[record]]
molecule = "O=C(N[C@H](Cc1ccc(Cl)c(Cl)c1)C(=O)O)c1ccc(Cl)cc1NS(=O)(=O)c1c(F)cccc1F"
result_value = 0.0794


a = O=C(O)C[C@H](Cc1ccc(Cl)c(Cl)c1)NC(=O)c1ccc(Cl)cc1NS(=O)(=O)c1cccc2nccnc12
b = C[C@@H](NC(=O)c1ccc(I)cc1NS(=O)(=O)c1cccc2nsnc12)[C@@H](O)c1ccc(Cl)cc1
Which value of Ki is numerically greater: that of a or that of b ? Select an item and report its label.
a
